# targetEntity: human monocyte chemo-attractant protein-1 (MCP-1) (human, UniProt P13500 24-99)
# Sequence (P13500 24-99): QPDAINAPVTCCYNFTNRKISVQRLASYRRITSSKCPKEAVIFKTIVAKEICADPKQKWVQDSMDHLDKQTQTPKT
# runDescription: cell-based or functional assay
Listed here: items and their measured IC50 Chemotaxis.

binder: anti-MCP-1 mAb 3.5.1 (antibody, V domains shown) VH: QVQLVQSGAEVKKPGASVKVSCKVSGYTLSELSMHWVRQAPGKGLEWMGGFDPEDDETIYAQKFQGRVTMTEDTSTDTAFMELSSLRSEDTAVYYCATHDFWSGYFHYWGQGTLVTVSS VL: DIVMTQSPDSLAVSLGERATINCKSSQSVLYSSDNKSYLVWYQQKPGQPPKVLIYWASIRESGVPDRFSGSGSGTDFTLTISSLQAEDVAVYYCQQYYTSPWTFGQGTKVEIKR
unitAbbrev: mg/L
IC50 Chemotaxis: 3.1
//
binder: anti-MCP-1 mAb 5.1 (antibody, V domains shown) VH: EQSGGGVVQPGRSLRLSCAASGFTFSSYGMHWVRQAPGKGLEWVAVIWYDGNNKYYADSVKGRFTISRDTSKNTLYLQMNSLRAEDTAVYYCARDSSSYYYYGMDVWGQGTTVTVSS VL: NFMLTQPHSVSESPGKTVTISCTRSSGSIASNYVQWFQQRPGSSPTTVIYEDDQRPSGVPDRFCGSIDSSSNSASLTISGLRTEDEADYYCQSYDSSNHVVFGGGTKLTVLG
unitAbbrev: mg/L
IC50 Chemotaxis: 1.3
//
binder: anti-MCP-1 mAb 1.8.1 (antibody, V domains shown) VH: QVQLVQSGAEVKKPGASVKVSCKVSGHIFTELSIHWVRQAPGKGLEWMGGFDPEDGETIYAQKFQGRVTMTEDTSTDTVYMELSSLRSEDTAVYYCATNDFWSGYFDYWGQGTLVTVSS VL: DIVMTQSPGSLAVSLGERATINCKSSQSILFRSNNKNYLTWYQQKPGQPPKLLIYWASIRESGVPDRFSGSGSGSNFTLTITSLQAEDVAIYYCQQYYSSPWTFGQGTKVEIKR
unitAbbrev: mg/L
IC50 Chemotaxis: 0.88
//
binder: anti-MCP-1 mAb 1.1.1 (antibody, human IgG2, kappa, V domains shown) VH: QVQLVQSGAEVKKPGASVKVSCKVSGYTLTELSMHWVRQAPGNGLEWMGGFDPEDGETIYAQRFQGRVVMTEDPSTDTAYMELSSLRSEDTAVYYCATNEFWSGYFDYWGQGTLVTVSS VL: DIVMTQSPDSLAMSLGERATINCKSSQSVLYSSNNKNYLVWYQQKPGQPPKLLIYWASIRESGVPDRFSSSGSETDFTLTISSLQAEDVAVYYCQQYFSSPWTFGQGTKVEIKR
unitAbbrev: mg/L
IC50 Chemotaxis: 0.27
//
binder: anti-MCP-1 mAb 1.6.1 (antibody, V domains shown) VH: QVQLVQSGAEVKKPGASVKVSCKVSGYTLTELSMHWVRQAPGKGLEWMGGFDPEDGETIYAQKFQGRVTMTEDTSTDTAYMELSSLRSEDTAVYYCATWYSGIYLAFDIWGQGTMVTVSS VL: EIVLTQSPDFQSVTPKEKVTITCRASQSIGSSLHWYQQKPDQSPKLLIKYASQSFSGVPSRFSGSGSGTDFTLTINSLEAEDAATYYCHQSSSLPHTFGGGTKVEIKR
unitAbbrev: mg/L
IC50 Chemotaxis: 12
//
binder: anti-MCP-1 mAb 1.11.1 (antibody, V domains shown) VH: QVQVVQSGAEVKNPGASVKVSCKVSGSTLTELSMHWVRQAPGKGLEWMGGFDPEDGETIYAQKFQGRVTMTEDTSTDTVYMELSSLRSEDTAVYYCATNDFWSGYFDYWGQGTLVTVSS VL: DIVMTQSPDSLAVSLGERATITCKSSQTVLYSSNNKNYLVWYQQKSGQPPKLLIHWASIRESGVPDRFSGSGSGTDFTLTISSLQAEDVAVYYCQQYYSSPWTFGQGTKVEIKR
unitAbbrev: mg/L
IC50 Chemotaxis: 0.81
//
binder: anti-MCP-1 mAb 1.13.1 (antibody, V domains shown) VH: QVQLVQSGAEVKKPGASVKVSCKVSGHTLTELSMHWVRQAPGKGLEWMGGFDPEDDETIYAQKFQDRVTMTEDTSTDTAYMELSSLRSEDTAVYYCATNDFWSGYFDCWGQGTLVTVSS VL: DIVLTQSPDSLAVCLGERATINCKSSQSVLYSPNNKNFLVWYQQRPGQPPKLLIYWASTRESGVPDRFSGSGSGTDFTLTISSLQAEDVAVYYCQQYYSSPWTFGQGTKVEIKR
unitAbbrev: mg/L
IC50 Chemotaxis: 0.5
//
binder: anti-MCP-1 mAb 1.2.1 (antibody, V domains shown) VH: QVQLVQSGAEVKKPGASVKVSCKVSGYTFTELSMHWVRQAPGKGLEWMGGFDPEDGETSYAQKFRGRVTMTEDTSTDTAHMELSSLRSEDTAVYYCATNDFWSGYFDYWGQGTLVTVSS VL: DIQMTQSPSSVSASVGDRVTITCRASQGIDIYLAWYQQKPGKAPKLLINAASSLQNGVPSRFGGSGSGTDFTLTISGLQPEDFATYYCQLTYFFPWTFGQGTKVEIKR
unitAbbrev: mg/L
IC50 Chemotaxis: 0.24
//
binder: anti-MCP-1 mAb 3.11.1 (antibody, human IgG4, kappa, V domains shown) VH: QVQLQESGPGLVKPSQTLSLTCTVSGGSISSGGNYWNWIRQHPGKGLEWIGYIYYSGNTYYNPSLKSRITISIDTSKNQFSLTLSSVTAADTAVYYCARDGGDDAFDIWGQGTMVTVSS VL: DIQMTQSPSSLSASVGDRVTITCQASQDISNYLNWYQQKPGKAPKLLIYDASNLETGVPSRFSGSGSGTDFTFTINSLQPEDIATYYCQEYNNLPYSFGQGTKLEIKR
unitAbbrev: mg/L
IC50 Chemotaxis: 0.33

Taken from patent US20050058639A1.
